Data credit: PubChem BioAssay (NCI)

Recorded growth, one value per entry.
Test system: ACHN renal
Assay: NCI-60 one-dose screen, 48 h (100 = growth as untreated, 0 = no growth, -100 = all killed)
Conditions: 10 µM
Compounds without any hit were thinned out: in the full panel of roughly 83,000, 20% have a hit.
recorded.endpoint: growth (%)

>>> reported("CC(=O)c1ccc(Nc2nc(SC(C)C)nc(-c3ccccc3)c2C#N)cc1")
-56.9
>>> reported("Cc1ccc(CNC(=O)Cc2ccc3c(c2)CN(C2CCC(=O)NC2=O)C3=O)cc1 (configuration not stated)")
30.5
>>> reported("O=C(c1ccccc1)n1ccc(-c2cc3cc(Br)ccc3oc2=O)n1")
8.46
>>> reported("CN1C(=O)N(C)C2SC(N/N=C/c3ccc(F)cc3)=NC21 (configuration not stated)")
60.1
>>> reported("COc1cc2c3c(n(CCCNC(C)C)c(=O)c2cc1OC)-c1nc2c(cc1C3=O)OCO2")
4.04
>>> reported("COc1ccc(-c2nc(Nc3ccccc3S(N)(=O)=O)c3ccccc3n2)cc1")
15.3
>>> reported("Cc1noc2c(Cc3ccc([N+](=O)[O-])cc3)nn(CC(=O)N/N=C/c3ccc(Br)cc3)c(=O)c12")
43.6

====

Recorded growth, one value per entry.
Test system: SW-620 colon
Experiment: NCI-60 one-dose screen, 48 h (100 = growth as untreated, 0 = no growth, -100 = all killed)
Settings: 10 µM
This is part of a sample that, as a whole, favours compounds with a hit. Of some 83,000 tested, about 20% had one in any assay.
recorded.endpoint: growth (%)

>>> reported("O=C(c1ccc(O)cc1)C1[C@H](c2ccc(Br)cc2)[C@@H](c2ccccc2)NC12C(=O)Nc1ccccc12 (stereo not given in full)")
26.2
>>> reported("CCOc1ccc(/C=N/NC(=O)Cn2nc(Cc3ccc([N+](=O)[O-])cc3)c3onc(C)c3c2=O)cc1")
15.2
>>> reported("CC1(c2ccccc2)NC(=O)N(CC(=O)Nc2ccc(C(=O)/C=C/c3ccccc3)cc2)C1=O (stereo not given)")
32.4
>>> reported("O=C(/C=C/Nc1ccccc1)c1ccc2c(c1)Nc1ccccc1S2")
89.3
>>> reported("Cc1ccc(-c2nc(Nc3ccccc3C(=O)O)c3ccccc3n2)cc1")
14.5
>>> reported("COC(=O)C[C@](O)(CCCC(C)(C)O)C(=O)O[C@H]1C(OC)=C[C@@]23CCC(=O)N2CCc2cc4c(cc2[C@@H]13)OCO4")
91.9
>>> reported("COc1ccc(/C(CSc2nnc(-c3c[nH]c4ccccc34)n2-c2ccccc2)=N/O)cc1")
39.4
>>> reported("COc1cc2c3c(n(CCCn4ccnc4)c(=O)c2cc1OC)-c1nc2c(cc1C3=O)OCO2")
37
>>> reported("O=C(CNc1nc(-c2ccccc2)cs1)Nc1ccc(Cl)cc1[N+](=O)[O-]")
-60.6
>>> reported("CC(=O)c1cc(C(=O)c2ccc3c(c2)NC(=O)CO3)n2ccc3ccccc3c12")
93.1

====

Tested on: NCI-H522 lung
Assay: NCI-60 one-dose screen, 48 h (100 = growth as untreated, 0 = no growth, -100 = all killed)
Conditions: 10 µM
The panel holds about 83,000 compounds, 20% with a hit somewhere; the sample as a whole holds those more often.
recorded.endpoint: growth (%)

>>> reported("O=C(Nc1cccc(C(F)(F)F)c1)c1cncc(C#Cc2cnc3ccc(N4CCOCC4)nn23)c1")
-34.1
>>> reported("CN1CCN(Cc2ccc(NC(=O)c3cncc(C#Cc4cnc5ccc(N[C@H]6CCOC6)nn45)c3)cc2C(F)(F)F)CC1")
-69.1
>>> reported("CC1(C)[C@@H](NCO)CC[C@]2(C)[C@H]3C(=O)C=C4[C@@H]5C[C@](C)(CO)CC[C@]5(C)CC[C@@]4(C)[C@]3(C)CC[C@@H]12")
72.7
>>> reported("COc1cccc(C(N)=Nc2ccc(OCCCCCCn3cncn3)cc2)c1")
-2.45
>>> reported("CN1CCN(c2ccc(C(=O)/C=C/c3cc(Br)ccc3F)cc2)CC1")
66.4
>>> reported("COc1ccc2nc(Cl)c(-c3cc(-c4ccccc4)nc(=S)[nH]3)cc2c1")
37
>>> reported("CNCc1cccc2c1OCCCCCC[C@@](C)(O)CC1(CC1)S(=O)(=O)c1ccc(cc1)-c1cnc(N)c(n1)C(=O)N2")
-87.2
>>> reported("CCCCCCCCCCCCCCCCCCCC(=O)NCCc1c[nH]c2ccc(OC(=O)CCCC(=O)OCCOOCCOOCCOOCCOOCCOOCCOOCCOOCCOOCCOOCCOOCCOOCCOC)cc12")
-82.9
>>> reported("CCCCCc1ccc(S(=O)(=O)N(C(C)=O)c2cc(-c3csc(N(C)C(C)=O)n3)ccc2N2CCN(C)CC2)cc1")
55.5
>>> reported("CC[C@]12C=CCN3CC[C@@]4(c5cc(C#CCNc6ccc(C)c(Nc7nccc(-c8cccnc8)n7)c6)c(OC)cc5N(C)[C@H]4[C@@](O)(C(=O)OC)[C@@H]1OC(C)=O)C32 (stereo not given in full)")
58.5
>>> reported("Cc1nc(Nc2nc(C)c3ccc(OCCN4CCOCC4)cc3n2)[nH]c(=O)c1C")
-52.3
>>> reported("COc1ccc(C2NC(=S)NC(C)=C2C(=O)OC(C)C)cc1OC (stereo not given)")
102
>>> reported("COc1cccc(-c2nn(-c3ccccc3)cc2-c2ccnc(NCCCNC(=O)Nc3ccc(F)cc3)c2)c1")
-3.16
>>> reported("CCC(C)S(=O)(=O)c1oc(-c2ccc(C)cc2)nc1S(=O)(=O)c1ccccc1 (stereo not given)")
-98.7
>>> reported("N#Cc1ccc(-c2nn(-c3ccc(C(=O)O)cc3)cc2CNc2cc(Cl)cc(C(F)(F)F)c2)cc1")
19.5
>>> reported("Cc1ccc2nc(-c3ccc(-c4nnc(SCC(=O)Nc5ccc(Br)cc5)o4)cc3)[nH]c2c1")
62.6
>>> reported("O=C(NO)c1ccc(CNc2nc(-c3ccccc3)c3ccccc3n2)cc1")
-30.9
>>> reported("CS(=O)(=O)Nc1ccc(-c2ccc3c(c2)ncn3-c2ccc(NC(=O)Nc3ccc(Br)cc3)cc2)cc1")
-23.4
>>> reported("CC(=O)c1cc(C(=O)N2c3ccccc3Sc3ccccc32)n2ccc(C)cc12")
49.6
>>> reported("Cn1cc(/C=N/Nc2cccc(Cl)n2)c2ccccc21")
74.3
